Reported percent of cells in the positive quadrant values for a set of binders
# measured-target: T1, human PD-1 expressed on cells (human, UniProt Q15116 25-288)
# T1 construct: whole, on cells; also called hPD-1; 293 cell line stably expressing human PD-1
# T1 sequence (Q15116 25-288): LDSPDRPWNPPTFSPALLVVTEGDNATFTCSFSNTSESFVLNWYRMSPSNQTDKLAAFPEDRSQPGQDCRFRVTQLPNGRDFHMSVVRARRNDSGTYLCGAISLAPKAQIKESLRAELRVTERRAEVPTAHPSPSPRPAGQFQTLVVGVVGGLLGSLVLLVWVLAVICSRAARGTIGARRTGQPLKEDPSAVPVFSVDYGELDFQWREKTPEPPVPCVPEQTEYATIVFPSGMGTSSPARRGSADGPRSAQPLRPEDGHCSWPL
# test-name: flow cytometry on cells overexpressing hPD-1
Report the value in % with no unit label.

>>> endpoint_result("humanized antibody 2B3W (antibody, V domains shown, Humanized antibody made in Expi293 cells) VH: EVQLVESGGGLVQPGGSLRLSCAASGFVFSNYDMSWVRQAPGKGLEWVAYITIGGGTTYYPDTVKGRFTISRDNAKNSLYLQMNSLRAEDTAVYYCARWVYDPLYAMDYWGQGTTVTVSS VL: DIVLTQTPLSLSVTPGQPASISCRASESVDNYGISFMNWFLQKPGQPPQLLIYAASNQGSGVPDRFSGSGSGTDFTLKISRVEAEDVGVYYCQQSKEVPWTFGQGTKVEIK")
95.6

Recorded percent of cells in the positive quadrant for T14-04 (antibody, V domains shown) VH: EVQLVESGGGLVQPGGSLRLSCAASGFVFSNYDMSWVRQAPGKGLEWVAYITIGGGTTYYPDTVKGRFTISRDNAKNSLYLQMNSLRAEDTAVYYCARWRYDPLFAMDYWGQGTTVTVSS VL: DIVLTQTPLSLSVTPGQPASISCRASESVDNYGISFMNWFLQKPGQPPQLLIYAASNQGSGVPDRFSGSGSGTDFTLKISRVEAEDVGVYYCQQSKEVPWTFGQGTKVEIK , please? 95

Recorded percent of cells in the positive quadrant for T15-04 (antibody, V domains shown) VH: EVQLVESGGGLVKPGGSLRLSCAASGFTFSSFGMSWVRQAPGKGLELVATIYSNGDYTYYPDSVKGRFTVSRDNAKNSLYLQMNSLRAEDTAVYYCARYYGNYGGYFDYWGQGTLVTVSS VL: AIQMTQSPSSLSASVGDRVTITCKASQSVSNDVAWYQQKPGKAPKLLIYYAYMRYTGVPSRFSGSGSGTDFTLTISSLQPEDFATYYCQQDYSSPPTFGGGTKVEIK , please? 96.6

Attribution: patent US20250270320A1
